Values were extracted from paper PMC6269792.

Task for the reader: assign each of the following compounds its reported melting point.

Data point: O=C(Nc1cccc(OC(F)(F)F)c1)c1ccccc1NS(=O)(=O)c1cccc(OC(F)(F)F)c1 [Compound 5g4] ; melting point = 169.1 to 170.4 °C

Data point: O=C(Nc1cccc(OC(F)(F)F)c1)c1ccccc1NS(=O)(=O)c1cccc([N+](=O)[O-])c1 [Compound 5a4] ; melting point = 141.4 to 142 °C

Data point: Cc1ccc(NC(=O)c2ccccc2NS(=O)(=O)c2cccc(F)c2)cc1C(F)(F)F [Compound 5e3] ; melting point = 168.8 to 169.6 °C

Data point: COc1cccc(S(=O)(=O)Nc2ccccc2C(=O)Nc2ccc(Cl)c(Cl)c2)c1 [Compound 5f5] ; melting point = 160.3 to 161.4 °C

Data point: O=C(Nc1ccc(F)c(Cl)c1)c1cccc(NS(=O)(=O)c2cccc([N+](=O)[O-])c2)c1 [Compound 5b1] ; melting point = 161.3 to 162.6 °C

Data point: O=C(Nc1ccc(Cl)c(Cl)c1)c1ccccc1NS(=O)(=O)c1cccc(F)c1 [Compound 5e5] ; melting point = 179.1 to 180.6 °C

Data point: O=C(Nc1ccc(Cl)cc1Cl)c1ccccc1NS(=O)(=O)c1cccc(OC(F)(F)F)c1 [Compound 5g1] ; melting point = 151.6 to 152.8 °C

Data point: COc1cccc(S(=O)(=O)Nc2ccccc2C(=O)Nc2ccc(F)c(Cl)c2)c1 [Compound 5f2] ; melting point = 181.9 to 183.2 °C

###

TARGET_OR_TEST_SYSTEM: Human ASBT (Homo sapiens, UniProt Q12908)
Construct: expressed in transfected cells; host or cells: HEK293T
Sequence (Q12908 whole entry): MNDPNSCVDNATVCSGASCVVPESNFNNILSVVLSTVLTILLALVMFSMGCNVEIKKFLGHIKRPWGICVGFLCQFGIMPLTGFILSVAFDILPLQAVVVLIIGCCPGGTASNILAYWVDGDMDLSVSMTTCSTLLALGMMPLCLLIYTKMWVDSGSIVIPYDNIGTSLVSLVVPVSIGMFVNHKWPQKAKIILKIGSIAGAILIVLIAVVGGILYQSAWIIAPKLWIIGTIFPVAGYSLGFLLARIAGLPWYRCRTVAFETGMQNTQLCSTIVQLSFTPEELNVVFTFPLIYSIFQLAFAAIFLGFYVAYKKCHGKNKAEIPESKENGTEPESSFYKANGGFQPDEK
MEASUREMENT_PROTOCOL: ASBT inhibition assay: [3H]-taurocholic acid uptake in HEK293T cells transiently transfected with human ASBT
Type: cell-based
CONDITION_INFO: HEK-293T
READOUT_TYPE: inhibition at 10 µM (%)
The reply should contain only the number, in %.

Data point: O=C(Nc1cccc(OC(F)F)c1)c1ccccc1NS(=O)(=O)c1ccc([N+](=O)[O-])cc1 ; inhibition at 10 µM = 58.8

Data point: COc1cccc(S(=O)(=O)Nc2ccccc2C(=O)Nc2ccc(F)c(Cl)c2)c1 ; inhibition at 10 µM = 59.5

Data point: O=C(Nc1cccc(OC(F)(F)F)c1)c1ccc(NS(=O)(=O)c2cccc([N+](=O)[O-])c2)cc1 ; inhibition at 10 µM = 29.6

Data point: O=C(Nc1cccc(OC(F)F)c1)c1cccc(NS(=O)(=O)c2cccc([N+](=O)[O-])c2)c1 ; inhibition at 10 µM = 30.6
